Hi, quick share: literature pIC50 data for Cyclin-dependent kinase 5 (Homo sapiens, UniProt Q00535), several sources combined.
FYI, pIC50 means -log10 of a concentration in mol per litre.

Solved cases (2 shown):
O=c1oc2cc(O)ccc2c2c1[nH]c1ccc(O)cc12 : 6.14
O=C(Nc1ccc(Cl)c(C(F)(F)F)c1)N1CCN(c2nnc(Cc3ccccc3)c3ccccc23)CC1 : 6.39

Exercise: Form field - read-out: pIC50; system: Cyclin-dependent kinase 5 (Homo sapiens, UniProt Q00535); submitted item: `CC(=O)c1cnc2oc3ccc(O)cc3c2c1-c1ccccc1`
Solution: 4.76

Exercise: Form field - read-out: pIC50; system: Cyclin-dependent kinase 5 (Homo sapiens, UniProt Q00535); submitted item: `COc1ccc(Cc2nnc(N3CCN(C(=S)Nc4ccc(OC)cc4)CC3)c3ccccc23)cc1`
Solution: 6.34

Exercise: Form field - read-out: pIC50; system: Cyclin-dependent kinase 5 (Homo sapiens, UniProt Q00535); submitted item: `Nc1ccc2c(c1)/C(=C1/Nc3ccccc3/C1=N\O)C(=O)N2`
Solution: 6.82

###

Hi, quick share: literature IC50 data for Cyclin-dependent kinase 5 (Homo sapiens, UniProt Q00535), several sources combined.
Report as a plain number; the unit nM is understood.

Solved cases (3 shown):
CSc1cnc(NC(=O)Cc2ccccc2)s1 : 91
COc1ccc(Cc2nnc(N3CCN(C(=S)Nc4ccc(Cl)cc4)CC3)c3ccccc23)cc1 : 716
COc1ccc(NC(=S)NC(=O)c2cn(-c3ccccc3)nc2-c2ccc(F)cc2)cc1 : 1180

Exercise: Form field - read-out: IC50; system: Cyclin-dependent kinase 5 (Homo sapiens, UniProt Q00535); submitted item: `COc1ccc(Cc2nnc(N3CCN(C(=O)c4ccccc4)CC3)c3ccccc23)cc1`
Solution: 391

Exercise: Form field - read-out: IC50; system: Cyclin-dependent kinase 5 (Homo sapiens, UniProt Q00535); submitted item: `S=C(Nc1cccc(Cl)c1)N1CCN(c2nnc(Cc3ccccc3)c3ccccc23)CC1`
Solution: 135

Exercise: Form field - read-out: IC50; system: Cyclin-dependent kinase 5 (Homo sapiens, UniProt Q00535); submitted item: `O=C(Cc1ccc2[nH]cnc2c1)Nc1ncc(C2CCC2)s1`
Solution: 7

Exercise: Form field - read-out: IC50; system: Cyclin-dependent kinase 5 (Homo sapiens, UniProt Q00535); submitted item: `O=C(Cc1ccccc1)Nc1ncc(Br)s1`
Solution: 900

Exercise: Form field - read-out: IC50; system: Cyclin-dependent kinase 5 (Homo sapiens, UniProt Q00535); submitted item: `O=C1/C(=C/c2ccc(O)c(O)c2)Oc2cc(O)ccc21`
Solution: 1500

###

Hi, quick share: literature IC50 data for Cyclin-dependent kinase 5 (Homo sapiens), several sources combined.
Label MET when IC50 < 100 nM; otherwise NOT MET.

COc1cc2c(Oc3ccc(-c4cnc(Nc5ccc(F)cc5)n(C)c4=O)nc3)ccnc2cc1OCCCN1CCOCC1 : NOT MET
CN1CCC([C@@](C)(O)c2ccc3cnc(Nc4cccc(C(N)=O)c4)cc3n2)CC1 : MET

Exercise: Is the reported IC50 for `COC(=N)c1nc2ccc3ncnc(Nc4ccc(Br)cc4F)c3c2s1` strictly below 100 nM?
Solution: NOT MET

Exercise: Is the reported IC50 for `CC(=O)Nc1ccc2c(c1)/C(=C1/Nc3ccc(Br)cc3C1=O)C(=O)N2` strictly below 100 nM?
Solution: NOT MET

Exercise: Is the reported IC50 for `CCNc1cc(N[C@H]2CC[C@H](O)CC2)nc(Nc2ccc3c(ccn3Cc3ccccc3)c2)n1` strictly below 100 nM?
Solution: NOT MET

Exercise: Is the reported IC50 for `CCOC(=N)c1nc2ccc3ncn(C(C)C)c(=O)c3c2s1` strictly below 100 nM?
Solution: NOT MET

Exercise: Is the reported IC50 for `COc1ccc2[nH]c(-c3cccc(O)c3)c(-c3ccccn3)c2n1` strictly below 100 nM?
Solution: NOT MET

Exercise: Is the reported IC50 for `Nc1n[nH]c2nc3ccccc3nc12` strictly below 100 nM?
Solution: NOT MET

Exercise: Is the reported IC50 for `O=c1[nH]c2occ(-c3ccc(F)cc3)c2n2cccc12` strictly below 100 nM?
Solution: NOT MET

Exercise: Is the reported IC50 for `Cc1cc2ncn(CC(=O)Nc3ncc(C4CCC4)s3)c2cc1C` strictly below 100 nM?
Solution: MET

Exercise: Is the reported IC50 for `O=C1Nc2c(Br)cc([N+](=O)[O-])cc2/C1=C1/Nc2ccc(Br)cc2C1=O` strictly below 100 nM?
Solution: NOT MET

Exercise: Is the reported IC50 for `COC[C@@H](CC(C)C)NC1=N/C(=C\c2ccc3ncsc3c2)C(=O)N1C` strictly below 100 nM?
Solution: NOT MET

Exercise: Is the reported IC50 for `CC(C)c1cnc(NC(=O)Cc2ccccc2)s1` strictly below 100 nM?
Solution: MET

###

Hi, quick share: literature pIC50 data for Cyclin-dependent kinase 5 (Homo sapiens, UniProt Q00535), several sources combined.
FYI, pIC50 means -log10 of a concentration in mol per litre.

O=C1NC(=O)C(c2cn3c4c(cc(F)cc24)CN(C(=O)N2CCCCC2)CC3)=C1c1cn2ccccc2n1 : 7.10

Exercise: Would you mind telling me what pIC50 value was observed for `COc1ccc(Cc2nnc(N3CCN(C(=O)Nc4ccc(OC)cc4)CC3)c3ccccc23)cc1` ?
Solution: 6.85

Exercise: Would you mind telling me what pIC50 value was observed for `CC(C)c1cnc(NC(=O)Nc2ccccc2)s1` ?
Solution: 6.99

###

Hi, quick share: literature IC50 data for Cyclin-dependent kinase 5 (Homo sapiens), several sources combined.
Report as a plain number; the unit nM is understood.

NC(=O)c1cccc2[nH]c(NC(=O)c3cccc(C(=O)N4CCC(Nc5ncc(I)cn5)CC4)c3)nc12 : 747
CC(C)c1n[nH]c2c(NCc3ccc(-c4ccccn4)cc3)nc(NCC(O)CN)nc12 (configuration not stated) : 17
CCc1cnc(NC(=O)Cc2ccccc2)s1 : 621

Exercise: Would you mind telling me what IC50 value was observed for `O=C(Cc1ccccc1)Nc1ncc(C2CCCC2)s1` ?
Solution: 64

Exercise: Would you mind telling me what IC50 value was observed for `O=C(Nc1ncc(C2CCC2)s1)Nc1cccc2cnccc12` ?
Solution: 8

Exercise: Would you mind telling me what IC50 value was observed for `O=C1Nc2cc([N+](=O)[O-])ccc2/C1=C1/Nc2ccc(Br)cc2/C1=N\O` ?
Solution: 300

###

Hi, quick share: literature pIC50 data for Cyclin-dependent kinase 5 (Homo sapiens, UniProt Q00535), several sources combined.
pIC50: −log10 of the molar value.

Solved cases (2 shown):
COc1ccc2[nH]c(-c3ccc4cc(O)ccc4c3)c(-c3ccncc3)c2n1 : < 5.00
COc1ccc(-n2cnc3ccc(-c4nnc(SCc5cccc(C#N)c5)o4)cc32)cc1 : < 5.00

Next item in the queue.
Exercise: Form field - read-out: pIC50; system: Cyclin-dependent kinase 5 (Homo sapiens, UniProt Q00535); submitted item: `Cc1cnc(OC2CCCCC2)nc1-c1cnc(Nc2ccccn2)s1`
Solution: < 5.00

###

Hi, quick share: literature log10(IC50) data for Cyclin-dependent kinase 5 (Homo sapiens, UniProt Q00535), several sources combined.
# log10 transformed; quantity=IC50; unit=nM

Solved cases (5 shown):
Nc1ccc2c(c1)NC(=O)/C2=C1\Nc2ccccc2C1=O : 3.60
CC(=O)Nc1ccc2c(c1)/C(=C1/Nc3ccccc3/C1=N\O)C(=O)N2 : 2.20
COc1ccc(NC(=S)NC(=O)c2cn(-c3ccccc3)nc2-c2ccccc2)cc1 : 3.18
Nc1ccc2c(c1)/C(=C1/Nc3ccc(Br)cc3C1=O)C(=O)N2 : 2.74
O=C(Cc1ccc2ncccc2c1)Nc1ncc(C2CCC2)s1 : 1.00

Exercise: Would you mind telling me what log10(IC50) value was observed for `COc1ccc(-c2c[nH]c3c2-n2cccc2C3=O)cc1O` ?
Solution: 4.48

Exercise: Would you mind telling me what log10(IC50) value was observed for `CNc1ncnc(-c2cccnc2Oc2ccc(F)c(C(=O)Nc3cc(C(F)(F)F)ccc3N(C)CCCN(C)C)c2)n1` ?
Solution: 5.00

Exercise: Would you mind telling me what log10(IC50) value was observed for `S=C(Nc1ccccc1)N1CCN(c2nnc(Cc3ccccc3)c3ccccc23)CC1` ?
Solution: 2.98

Exercise: Would you mind telling me what log10(IC50) value was observed for `Nc1cc(Nc2ccc(S(N)(=O)=O)cc2)ncn1` ?
Solution: 3.64

Exercise: Would you mind telling me what log10(IC50) value was observed for `O=C(Nc1ccc2ncccc2c1)Nc1ncc(C2CCC2)s1` ?
Solution: 1.64

Exercise: Would you mind telling me what log10(IC50) value was observed for `O=C(Cc1ccccc1)Nc1ncc(C2CCC2)s1` ?
Solution: 1.40

Exercise: Would you mind telling me what log10(IC50) value was observed for `O=C(Cc1ccccc1)Nc1ncc(C2CCCCC2)s1` ?
Solution: 2.59
